Values from patent US20100222217A1

Recorded melting point for the following compounds

A selection of reference data follows.
>>> data_value("O=C(Nc1ccccc1OC(F)(F)C(F)Cl)c1cccnc1Cl (stereo not drawn)")
"73 to 76 °C"
>>> data_value("Cc1nc(C(F)(F)F)c(C(=O)Nc2ccccc2OC(F)(F)C(F)C(F)(F)F)s1 (stereo not drawn)")
"70 to 71 °C"
>>> data_value("Cn1cc(C(=O)Nc2ccccc2OC(F)(F)C(F)F)c(C(F)F)n1")
"117 to 119 °C"
>>> data_value("Cc1nc(C(F)F)c(C(=O)Nc2ccccc2OC(F)(F)C(F)C(F)(F)F)s1 (stereo not drawn)")
"89 to 92 °C"
>>> data_value("O=C(Nc1ccccc1OC(F)(F)C(F)C(F)(F)F)c1cccnc1Cl (stereo not drawn)")
"85 to 91 °C"

Name the recorded melting point for O=C(Nc1ccccc1OC(F)(F)C(F)F)c1cccnc1Cl .
126 to 128 °C

Which melting point reading was recorded for the compound Cn1cc(C(=O)Nc2ccccc2OC(F)(F)C(F)Cl)c(C(F)(F)F)n1 (stereo not drawn) ?
94 to 95 °C

Look up melting point: Cn1cc(C(=O)Nc2ccccc2OC(F)(F)C(F)C(F)(F)F)c(C(F)(F)F)n1 (stereo not drawn)
91 to 93 °C

Name the recorded melting point for Cc1nc(C(F)(F)F)c(C(=O)Nc2ccccc2OC(F)(F)C(F)F)s1 .
118 to 120 °C

###

Attribute: melting point

// solved cases for melting point follow
>>> data_value("Cc1nc(C)c(C(=O)Nc2ccccc2OC(F)(F)C(F)F)s1")
"134 to 135 °C"
>>> data_value("Cc1nc(C(F)(F)F)c(C(=O)Nc2ccccc2OC(F)(F)C(F)Cl)s1 (stereo not drawn)")
"80 to 81 °C"

Now let's try a different one.
# lookup: melting point of Cn1cc(C(=O)Nc2ccccc2OC(F)(F)C(F)Cl)c(C(F)F)n1 (stereo not drawn)
110 to 111 °C
